assay: inhibitors of E-selectin induction by TNFa, primary screen, imaging, HUVEC, immunofluorescence, MLSMR starter and 10KST1 sets (AID 487); settings: HUVEC TNFalpha-induced E-selectin immunofluorescence imaging, at 2 µM; stronger effect = higher value;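 further: signal is fraction of cell area covered by stained E-selectin grains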
The reader will find reported inhibition values listed item by item below.
readout: inhibition (%)

> print(dat)
                                    compound     readout  unitslabel  readoutnumber
 1  O=C1NC2=C(C(=O)CCC2)C(c2ccc3ncccc3c2)N1 (stereo unspecified)  inhibition           %          -13.9
 2  Cc1cc(C)n(CC2CC(=O)N(c3cc(Cl)cc(Cl)c3)C2=O)n1 (stereo unspecified)  inhibition           %          -80.7
 3  Cc1ccc(N(CC(O)CN(C)C)S(=O)(=O)c2ccccc2)cc1 (stereo unspecified)  inhibition           %            6.4
 4     CCC(NC(=O)Nn1cnnc1)(C(F)(F)F)C(F)(F)F  inhibition           %          -59.3
 5  CCOC(=O)c1[nH]c(C)c(C(=O)N2CCN(C(=O)c3ccco3)CC2)c1C  inhibition           %           -102
 6  CC1(C)Cc2c(C#N)c(SCc3nc4ccccc4[nH]3)nc(N3CCOCC3)c2CO1  inhibition           %           -111
 7       CCOc1ccc(N=C(NC#N)SCC(=O)NC2CC2)cc1  inhibition           %          -40.6
 8  C=CCOc1ccc(/C(O)=C2/C(=O)C(=O)N(CCCN3CCOCC3)C2c2ccccc2)cc1 (stereo unspecified)  inhibition           %           -152
 9  Cc1ccc(-n2ncc3c(NCc4ccc5c(c4)OCO5)ncnc32)c(C)c1  inhibition           %          -35.3
10   O=c1c2ccccc2nc(SCc2cccc(F)c2)n1Cc1ccco1  inhibition           %          -37.1
11      CC(C)(C)NC(=O)Cn1c(=O)oc2ccc(Cl)cc21  inhibition           %          -47.1

###

The reader will find reported z-score values listed item by item below.
test: DUSP6 inhibitors restoring Erk phosphorylation by chemical complementation, primary imaging in DUSP6-transfected HeLa (AID 609); settings: HeLa MKP-3 transfected, phospho-Erk imaging KS statistic; measured here: nuclear pErk red intensity z-score; at 10 µM; stronger effect = higher value; cells stimulated with TPA for 15 min
readout: z-score

> print(dat)
                                     smiles  result
1        c1ccc2c(N3CCCCC3)nc(N3CCCCC3)nc2c1    1.04
2     COc1ccc2[nH]c(C)c(C(=O)CN3CCOCC3)c2c1   0.499
3  O=C(CN1C(=O)c2ccccc2S1(=O)=O)NCCSCc1ccco1   0.301
4  Cc1nnc2n(C3CCCCC3)c(=O)c3c4c(sc3n12)COC(C)(C)C4  -0.467
5  CC1(C)Cc2c(C#N)c(SCC(=O)c3ccccc3)nc(N3CCOCC3)c2CS1   0.585
6               Cc1cc(C)c(S(=O)(=O)O)c(C)n1   0.985

###

molecular target: Dual specificity protein phosphatase 6 (Homo sapiens) (UniProt Q16828); assay: DUSP6 inhibitors restoring Erk phosphorylation by chemical complementation, primary imaging in DUSP6-transfected HeLa (AID 609); settings: HeLa MKP-3 transfected, phospho-Erk imaging KS statistic; at 10 µM; stronger effect = higher value; cells stimulated with TPA for 15 min;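 on inhibition: phospho-Erk level distribution per well compared with pooled transfected vehicle control wells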
Sequence (Q16828 whole entry, looked up): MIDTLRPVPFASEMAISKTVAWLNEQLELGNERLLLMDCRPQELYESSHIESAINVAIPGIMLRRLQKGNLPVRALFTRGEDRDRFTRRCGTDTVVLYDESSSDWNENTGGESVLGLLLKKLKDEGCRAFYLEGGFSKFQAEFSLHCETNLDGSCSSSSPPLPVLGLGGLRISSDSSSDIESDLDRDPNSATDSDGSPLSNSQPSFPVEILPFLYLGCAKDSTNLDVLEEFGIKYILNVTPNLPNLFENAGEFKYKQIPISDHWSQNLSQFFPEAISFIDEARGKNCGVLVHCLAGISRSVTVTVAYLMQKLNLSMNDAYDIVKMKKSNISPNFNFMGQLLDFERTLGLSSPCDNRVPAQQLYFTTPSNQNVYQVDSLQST
readout: inhibition (%)

> print(dat)
                                    molecule  readoutnumber
 1     N#Cc1nc(-c2cccs2)oc1NCc1ccc2c(c1)OCO2           7.83
 2  COCc1[nH]nc2c1C(c1ccc(OC)cc1)C(C#N)=C(N)O2 (configuration not stated)          -4.27
 3  Cc1cc2c(c(=O)n1Cc1ccccn1)C(c1ccc3c(c1)OCO3)C(C#N)=C(N)O2 (configuration not stated)          -2.91
 4    CCc1nc(NC2CCCCC2)c(C#N)c2c1COC(C)(C)C2           29.5
 5  COc1cc(C2Nc3cccc4cccc(c34)N2)cc(OC)c1OC(C)=O          -2.59
 6           CC(=O)Oc1ccc2c(C)cc(=O)[nH]c2c1           5.95
 7                Cc1ccc(C(=O)NCC(C)(C)O)cc1          -3.95
 8  O=C(O)CCCC(=O)N1CCN(C(c2ccccc2)c2ccccc2)CC1          -9.53
 9  CCCCN(C(=O)CCC(=O)O)C1CC(=O)N(c2ccc(OCCC)cc2)C1=O (configuration not stated)          -9.53
10         CCC(CC)c1nc2cc(OC)c(OC)cc2c(=O)o1          -4.59
11                  CSc1nc(C)c2c(c1C#N)CCCC2           1.04
12  CCCC(CCC(=O)Nc1ccc(C(=O)OCC)cc1)C(=O)O (configuration not stated)           20.2
13  Cc1ccccc1COc1ccc(/C(O)=C2/C(=O)C(=O)N(CCCn3ccnc3)C2c2ccco2)cc1 (configuration not stated)           9.37
14                         CSc1nncc(=O)[nH]1           6.51
15  CCC(C)Nc1nc(OC)nc(N(C)C#N)n1 (configuration not stated)          -9.53
16                O=c1cc(N2CCCCC2)nc2n1CCCS2           29.7
17  O=C1c2ccccc2C(=O)N1CC1c2ccccc2CCN1C(=O)N1CCOCC1 (configuration not stated)           1.98
18     CCOC(=O)c1[nH]c2ccc(C)cc2c1N=CN(CC)CC           3.97
19  CCCn1c(SCC#N)nc2c(c1=O)C1(CCCC1)Cc1ccccc1-2           3.97
20          COc1cccc(C=NCCNC(=O)c2nonc2N)c1O           7.93
21  COc1ccc(/C(O)=C2/C(=O)C(=O)N(CCCN(C)C)C2c2ccccc2)cc1Cl (configuration not stated)           4.25
22  CCn1c(SCC(=O)N2CCOCC2)nc2sc3c(c2c1=O)CCCC3          -8.59
23            Cc1ccc(C(=O)/C=C/Nc2ccccn2)cc1           15.4
24  COc1ccc(OC)c(C2/C(=C(/O)c3ccccc3)C(=O)C(=O)N2Cc2ccco2)c1 (configuration not stated)          -11.4
25  O=S(=O)(c1cccc2nsnc12)N1CCN(C/C=C/c2ccccc2)CC1        1.9e-07
26  CC(=O)C1=C(O)C(=O)N(c2ccc(Br)cn2)C1c1ccccc1F (configuration not stated)           3.97
27                    C(=N\n1cnnc1)/c1ccccn1           9.42
28  COc1ccc(CSc2nnc3n(C)c(=O)c4c5c(sc4n23)CCCC5)cc1           17.8
29  N#C/C(=C\c1c(N2CCC(C(N)=O)CC2)nc2ccccn2c1=O)S(=O)(=O)c1ccccc1           12.7
30          COc1ccccc1NC(=O)c1c(C)cc(=O)oc1C          -4.59
31     COC(=O)CSCC(=O)Nc1cc2c(cc1C(C)=O)OCO2          -4.78
32  CN1Cc2c(N3CCOCC3)nc(SCc3ccccc3)c(C#N)c2CC1(C)C         -0.584
33   CCOC(=O)c1c2c(c(=S)n(-c3ccccc3)c1N)CCC2          -3.95
34  CCC(=O)Nc1c(C#N)c2nc3ccccc3nc2n1C1CCCCC1          -2.09
35        N#Cc1c2c(c(-c3ccco3)[nH]c1=O)CCCC2          -5.81
36  Cc1nc(=O)c(-c2ccccc2)c(C)n1-c1ccc(S(N)(=O)=O)cc1           7.93
37     CC1CCN(c2[nH]c(=S)c(C#N)c3c2CCCC3)CC1           1.42
38  COc1ccccc1C1/C(=C(/O)c2ccc(C)cc2)C(=O)C(=O)N1CCN1CCOCC1 (configuration not stated)          -2.09
39  CCOC(=O)C(C(=O)OCC)N(C#N)c1nc(SC)nc(N(C)C)n1           33.3
40          CCOC(=O)C1=Nc2ccccc2C1=[N+]=[N-]          -5.95
41               O=C(Nc1ncccc1Cl)c1cccc(F)c1           3.42
42  COc1cc(N2CCCC2)c(OC)cc1/C=c1/sc2nc3ccccc3n2c1=O           39.3
43        C=C(C)CN(CC)CCC(=O)Nc1ccc(OC)cc1OC          -7.28
44        Cc1cc(NCCNC2=CC(=O)CCC2)nc2ccccc12          -3.97
45                   O=C(/C=N/O)NCCCN1CCOCC1          -15.1
46  COc1ccc(C2C(C#N)=C(C)NC3=C2C(=O)c2ccccc23)cc1 (configuration not stated)           21.8
47  Cc1cccc(NC(=O)c2cc(N3CCOCC3)nc3ccccc23)c1          -11.5
